- PROTOCOL_CONDITIONS: in methanol, 323.15 K
OBSERVATION_TYPE: solubility (mole fraction)

1) OCC1(O)OC[C@@H](O)[C@H](O)[C@@H]1O (stereo partly specified); 0.0166

* * *

- PROTOCOL_CONDITIONS: in ethanol, 303.15 K
OBSERVATION_TYPE: solubility (mole fraction)

1. OCC1(O)OC[C@@H](O)[C@H](O)[C@@H]1O (stereo partly specified); 0.00245

* * *

- PROTOCOL_CONDITIONS: in isopropanol, 318.15 K
OBSERVATION_TYPE: solubility (mole fraction)

1) OCC1(O)OC[C@@H](O)[C@H](O)[C@@H]1O (stereo partly specified); 0.00211

* * *

- PROTOCOL_CONDITIONS: in methanol, 283.15 K
OBSERVATION_TYPE: solubility (mole fraction)

1. OCC1(O)OC[C@@H](O)[C@H](O)[C@@H]1O (stereo partly specified); 0.00414

* * *

- PROTOCOL_CONDITIONS: in isopropanol, 323.15 K
OBSERVATION_TYPE: solubility (mole fraction)

1. OCC1(O)OC[C@@H](O)[C@H](O)[C@@H]1O (stereo partly specified); 0.00261

* * *

- PROTOCOL_CONDITIONS: in isopropanol, 308.15 K
OBSERVATION_TYPE: solubility (mole fraction)

1) OCC1(O)OC[C@@H](O)[C@H](O)[C@@H]1O (stereo partly specified); 0.0015

* * *

- PROTOCOL_CONDITIONS: in n-propanol, 318.15 K
OBSERVATION_TYPE: solubility (mole fraction)

1. OCC1(O)OC[C@@H](O)[C@H](O)[C@@H]1O (stereo partly specified); 0.00238

* * *

- PROTOCOL_CONDITIONS: in water, 283.15 K
OBSERVATION_TYPE: solubility (mole fraction)

1) OCC1(O)OC[C@@H](O)[C@H](O)[C@@H]1O (stereo partly specified); 0.0976

* * *

- PROTOCOL_CONDITIONS: in ethanol, 288.15 K
OBSERVATION_TYPE: solubility (mole fraction)

1. OCC1(O)OC[C@@H](O)[C@H](O)[C@@H]1O (stereo partly specified); 0.00168

* * *

- PROTOCOL_CONDITIONS: in isopropanol, 283.15 K
OBSERVATION_TYPE: solubility (mole fraction)

1. OCC1(O)OC[C@@H](O)[C@H](O)[C@@H]1O (stereo partly specified); 0.00038

* * *

- PROTOCOL_CONDITIONS: in n-propanol, 303.15 K
OBSERVATION_TYPE: solubility (mole fraction)

1) OCC1(O)OC[C@@H](O)[C@H](O)[C@@H]1O (stereo partly specified); 0.00127

* * *

- PROTOCOL_CONDITIONS: in water, 298.15 K
OBSERVATION_TYPE: solubility (mole fraction)

1) OCC1(O)OC[C@@H](O)[C@H](O)[C@@H]1O (stereo partly specified); 0.124

* * *

- PROTOCOL_CONDITIONS: in ethanol, 293.15 K
OBSERVATION_TYPE: solubility (mole fraction)

1. OCC1(O)OC[C@@H](O)[C@H](O)[C@@H]1O (stereo partly specified); 0.00193

* * *

- PROTOCOL_CONDITIONS: in ethanol, 298.15 K
OBSERVATION_TYPE: solubility (mole fraction)

1) OCC1(O)OC[C@@H](O)[C@H](O)[C@@H]1O (stereo partly specified); 0.00219

* * *

- PROTOCOL_CONDITIONS: in isopropanol, 313.15 K
OBSERVATION_TYPE: solubility (mole fraction)

1. OCC1(O)OC[C@@H](O)[C@H](O)[C@@H]1O (stereo partly specified); 0.00171

* * *

- PROTOCOL_CONDITIONS: in n-propanol, 293.15 K
OBSERVATION_TYPE: solubility (mole fraction)

1) OCC1(O)OC[C@@H](O)[C@H](O)[C@@H]1O (stereo partly specified); 0.00062

* * *

- PROTOCOL_CONDITIONS: in n-propanol, 323.15 K
OBSERVATION_TYPE: solubility (mole fraction)

1. OCC1(O)OC[C@@H](O)[C@H](O)[C@@H]1O (stereo partly specified); 0.00272

* * *

- PROTOCOL_CONDITIONS: in water, 323.15 K
OBSERVATION_TYPE: solubility (mole fraction)

1) OCC1(O)OC[C@@H](O)[C@H](O)[C@@H]1O (stereo partly specified); 0.175

* * *

- PROTOCOL_CONDITIONS: in ethanol, 283.15 K
OBSERVATION_TYPE: solubility (mole fraction)

1. OCC1(O)OC[C@@H](O)[C@H](O)[C@@H]1O (stereo partly specified); 0.00138

* * *

- PROTOCOL_CONDITIONS: in n-propanol, 313.15 K
OBSERVATION_TYPE: solubility (mole fraction)

1. OCC1(O)OC[C@@H](O)[C@H](O)[C@@H]1O (stereo partly specified); 0.002

* * *

- PROTOCOL_CONDITIONS: in water, 313.15 K
OBSERVATION_TYPE: solubility (mole fraction)

1. OCC1(O)OC[C@@H](O)[C@H](O)[C@@H]1O (stereo partly specified); 0.155

Cited source: BigSolDB 2.1
